Data provenance: paper PMC10901292

assay.name: Mouse pharmacokinetic study
condition.parameters: male, Swiss Albino, mouse, plasma, ip, 50 mg/kg
readout.kind: concentration at 9 h

The recorded concentration at 9 h for entry CCN(c1cc(-c2ccc(CN3CCN(CCC(=O)NCCCCCCCCCCC(=O)N[C@H](C(=O)N4C[C@H](O)C[C@H]4C(=O)NCc4ccc(-c5scnc5C)cc4)C(C)(C)C)CC3)cc2)cc(C(=O)NCc2c(C)cc(C)[nH]c2=O)c1C)C1CCOCC1 [MS8847] equals > 1000 nM
